I'd be grateful if you could share measured IC50 for these entries.
# target.or.system: PD-1/PD-L1 (Homo sapiens, UniProt Q9NZQ7)
# Construct: TVMV protease site linker (C)
# Sequence (Q9NZQ7 18-239): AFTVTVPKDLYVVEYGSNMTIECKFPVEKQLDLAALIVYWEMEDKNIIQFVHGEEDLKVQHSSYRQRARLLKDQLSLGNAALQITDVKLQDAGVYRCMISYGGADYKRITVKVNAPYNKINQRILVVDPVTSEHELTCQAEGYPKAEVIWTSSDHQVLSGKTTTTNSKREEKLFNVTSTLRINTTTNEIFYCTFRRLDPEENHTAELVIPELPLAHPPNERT
# experiment: PD-1/PD-L1 Homogenous Time-Resolved Fluorescence (HTRF) binding assay
# experimental.setup: PD-L1-His 10 nM, PD-1-Ig 20 nM
Answers are plain numbers, in nM.

Worked cases, IC50 given:
[
  {
    "compound": "Cc1c(COc2cc(OCc3cncc(C#N)c3)c(CN3CCC(c4cc[nH]n4)C3)cc2Cl)cccc1-c1cccc(OCC2CCCN(C)C2)c1Cl (centres unmarked) [Example 2608]",
    "observed.measurement": 2.3
  },
  {
    "compound": "Cc1cc(CN(C)Cc2cc(Cl)c(OCc3cccc(-c4cccc(OCCCN5CC[C@@H](O)C5)c4C)c3C)cc2OCc2cncc(C#N)c2)no1 [Example 2529]",
    "observed.measurement": 1.1
  },
  {
    "compound": "Cc1c(COc2cc(OCc3cncc(C#N)c3)c(CN(C)Cc3nn(C)cc3Cl)cc2Cl)cccc1-c1cccc(OCCCN2CC[C@@H](O)C2)c1C [Example 2027]",
    "observed.measurement": 2.3
  }
]

// batch mode: one IC50 value per listed entry
1. Cc1c(COc2cc(OCc3cncc(C#N)c3)c(CNCc3nnc4ccc(C(F)(F)F)cn34)cc2Cl)cccc1-c1cccc(OCC2CCCN(C)C2)c1Cl (centres unmarked) [Example 2619]
2. Cc1c(COc2cc(OCc3cnccn3)c(CNCc3c[nH]cn3)cc2Cl)cccc1-c1cccc(OCC2CCCN(C)C2)c1Cl (centres unmarked) [Example 2060]

**A:**
1: 3.1; 2: 1.9
